- Tested on: RXRa DBDmut IVT, anti-RXR (DBD mutation: RXRa K156A/R161A, NR concentration 90 nM)
- experiment description: PBM binding z-score (relative to random genomic background probes); higher = stronger binding; sequences stand for … in GC…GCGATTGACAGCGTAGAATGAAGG
outcome measure: PBM binding z-score

Query: Lookup: PBM binding z-score / RXRa DBDmut IVT, anti-RXR (DBD mutation: RXRa K156A/R161A, NR concentration 90 nM) / ATCTCTAGGTAACCAAGTTCAGTGAGTGCCGAAC
Response: 1.34

Query: Lookup: PBM binding z-score / RXRa DBDmut IVT, anti-RXR (DBD mutation: RXRa K156A/R161A, NR concentration 90 nM) / AGTCAAAGTTCATCTAGGTAACGTAAGATATGCT
Response: 4.76

Query: Lookup: PBM binding z-score / RXRa DBDmut IVT, anti-RXR (DBD mutation: RXRa K156A/R161A, NR concentration 90 nM) / CGTCCAAGGTCTTAGGAGGTCAGTGAAGACAGAT
Response: 0.709

Query: Lookup: PBM binding z-score / RXRa DBDmut IVT, anti-RXR (DBD mutation: RXRa K156A/R161A, NR concentration 90 nM) / CAAACTAGGTCAAGCTCAAAGTCGGTTTGTGCCA
Response: 1.53

Query: Lookup: PBM binding z-score / RXRa DBDmut IVT, anti-RXR (DBD mutation: RXRa K156A/R161A, NR concentration 90 nM) / TCTTGTAGATCAAAGGTTAAGGAAGCCGAAGCCT
Response: 0.63

Query: Lookup: PBM binding z-score / RXRa DBDmut IVT, anti-RXR (DBD mutation: RXRa K156A/R161A, NR concentration 90 nM) / TCTTGTAGACCAAAGGTTAAGAAAGCCGAAGCCT
Response: 0.533

====

Please provide measured PBM binding z-score for the entries that follow.
- Tested on: VDR:RXRa (NR concentration 270 nM, RXRa partner concentration 90 nM)
- experiment description: PBM binding z-score (relative to random genomic background probes); higher = stronger binding; sequences stand for … in GC…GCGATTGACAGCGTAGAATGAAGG
Answer as a number with no unit attached.

Query: May I ask what PBM binding z-score has been recorded for CCTGCTAGCTCATGGTCAGCTAATCTACAGTATG ?
Response: -0.366

Query: May I ask what PBM binding z-score has been recorded for TCTATTAGTTGAAGAGCAACCGACGAGTCCGTTT ?
Response: 0.538

Query: May I ask what PBM binding z-score has been recorded for CTACCAAGGTGACCAAGGTCGTTGATTACTATTC ?
Response: 5.32

Query: May I ask what PBM binding z-score has been recorded for CCGACTGGCGCAGAAAGGTTACCATACCATCCGG ?
Response: 0.29

Query: May I ask what PBM binding z-score has been recorded for CGAACTATGTCATTGACAGGACAGTGAATAGTAA ?
Response: 0.154

Query: May I ask what PBM binding z-score has been recorded for CCGAGTAGGGTATGGGGCATTCAGGCAACGGTGA ?
Response: -0.217

Query: May I ask what PBM binding z-score has been recorded for TCTATTAGTTGATTAGGGCACCCGAAACAGCGGA ?
Response: 0.698

Query: May I ask what PBM binding z-score has been recorded for TCATATAGGTAAATGTTAGGTGAAAGTCCGATCT ?
Response: 1.23

Query: May I ask what PBM binding z-score has been recorded for CCTGCTAGGTCATGGCCAGCTAATCTACAGTATG ?
Response: 1.43

Query: May I ask what PBM binding z-score has been recorded for CCGATTGGGGCATAAGGTTACCATAAGCCAGCCC ?
Response: 0.31

Query: May I ask what PBM binding z-score has been recorded for CCGGCTAGGTCAATGGTCAGCTAAAGCAGCTCGC ?
Response: 0.907

Query: May I ask what PBM binding z-score has been recorded for CCGACTGGGACAAGGTTACCATAACGCACAGCCA ?
Response: 0.2
